FYI, the data here is from paper PMC10044725.

I'd appreciate it if you could supply IC50 values for the items below.
measured.on: α-glucosidase
assay.overview: α-Glucosidase inhibition assay (pNPG)
test.parameters: compounds

Request: Can you share its IC50? I mean this compound: COC(=O)c1cc(O)c2c(c1)C(=O)c1ccccc1C2=O
Result: > 50 µM

Request: Entry COc1cc(C(O)C(CO)Oc2c(OC)cc(/C=C/CO)cc2OC)cc(OC)c1O (stereo not drawn) : reported IC50 = ?
Result: > 50 µM

Request: Which IC50 is listed for O=c1cc(-c2ccc(O)c(O)c2)oc2cc(O)cc(O)c12 ?
Result: > 50 µM

----------
assay.overview: Ferric reducing antioxidant power (FRAP) assay
test.parameters: compounds at 50 μM; Trolox equivalent
Marks after values point to notes of the source that are not given here.
Kindly supply the reported FRAP Assay values for the records listed here.

Request: May I ask what FRAP Assay has been recorded for COc1cc(C(O)C(CO)Oc2c(OC)cc(/C=C/CO)cc2OC)cc(OC)c1O (stereo not shown) ?
Result: 0.29 ± 0.00 ^b mmol Trolox/L

Request: Can you look up the measured FRAP Assay of O=C1O[C@H]([C@@H](O)CO)C(O)=C1O [Ascorbic acid, reference compound] for me?
Result: 1.01 ± 0.06 ^a mmol Trolox/L

Request: Would you mind telling me what FRAP Assay value was observed for COc1ccc(-c2cc(=O)c3c(O)cc(O[C@@H]4O[C@H](C(=O)O)[C@@H](O)[C@H](O)[C@H]4O)cc3o2)cc1 [Compound 2, acacetin-7-O-β-glucuronide] ?
Result: 0.03 ± 0.01 ^c mmol Trolox/L

Request: Which FRAP Assay value belongs to O=C(O)c1c[nH]c2ccccc12 ?
Result: 0.28 ± 0.01 ^b mmol Trolox/L
